System: P-Akt (S473)
protocol-summary: Cell based AlphaLISA assay, inhibition of P-Akt (S473) (mTORC2 substrate phosphorylation) in MDA-MB-468 cells
condition-context: Homo sapiens, MDA-MB-468, 4 h, AlphaLISA, two to four hours at 37° C., read-out: pIC50 for Inhibition of mTORC1 and mTORC2 Substrate Phosphorylation, p-AKT 1/2/3 -(S473) (converted)
readout-kind: IC50

>  <smiles-notation>
CO[C@H]1C[C@@H]2CC[C@@H](C)[C@@](O)(O2)C(=O)C(=O)N2CCCC[C@H]2C(=O)O[C@H]([C@H](C)C[C@@H]2CC[C@H](n3cc(COC(=O)NCCOCCOCCC(=O)NCc4cnc(N5CCN(c6ncc(C(=O)NCCCCn7nc(-c8cc9cc(O)ccc9[nH]8)c8c(N)ncnc87)cn6)CC5)nc4)nn3)[C@H](OC)C2)CC(=O)[C@H](C)/C=C(\C)[C@@H](O)[C@@H](OC)C(=O)[C@H](C)C[C@H](C)/C=C/C=C/C=C/1C

>  <IC50>
> 1000 nM

$$$$

Then there is this compound:
Ask | // IC50 lookup, key: CO[C@H]1C[C@@H]2CC[C@@H](C)[C@@](O)(O2)C(=O)C(=O)N2CCCC[C@H]2C(=O)O[C@H]([C@H](C)C[C@@H]2CC[C@H](n3cc(-c4cccc(C(=O)NCCOCCOCCOCCC(=O)NCCOCCOCCOCCC(=O)NCCCCn5nc(-c6cc7cc(O)ccc7[nH]6)c6c(N)ncnc65)c4)nn3)[C@H](OC)C2)CC(=O)[C@H](C)/C=C(\C)[C@@H](O)[C@@H](OC)C(=O)[C@H](C)C[C@H](C)/C=C/C=C/C=C/1C
Reply | 31.6 to 1000 nM

---

Tested on: P-Akt (S473)
protocol-summary: Cell based AlphaLISA assay, inhibition of P-Akt (S473) (mTORC2 substrate phosphorylation) in MDA-MB-468 cells
condition-context: Homo sapiens, MDA-MB-468, 4 h, AlphaLISA, two to four hours at 37° C., read-out: pIC50 for Inhibition of mTORC1 and mTORC2 Substrate Phosphorylation, p-AKT 1/2/3 -(S473) (converted)
readout-kind: IC50

>  <molecule>
CO[C@H]1C[C@@H]2CC[C@@H](C)[C@@](O)(O2)C(=O)C(=O)N2CCCC[C@H]2C(=O)O[C@H]([C@H](C)C[C@@H]2CC[C@H](n3cc(COC(=O)NCCOCCOCCOCCC(=O)NCCOCCOCCC(=O)NCCCCn4nc(-c5ccc6oc(N)nc6c5)c5c(N)ncnc54)nn3)[C@H](OC)C2)C/C(=N/OC(C)(C)C)[C@H](C)/C=C(\C)[C@@H](O)[C@@H](OC)C(=O)[C@H](C)C[C@H](C)/C=C/C=C/C=C/1C

>  <experimental-value>
> 1000 nM

$$$$
>  <molecule>
CO[C@H]1C[C@@H]2CC[C@@H](C)[C@@](O)(O2)C(=O)C(=O)N2CCCC[C@H]2C(=O)O[C@H]([C@H](C)C[C@@H]2CC[C@@H](O)[C@H](OC)C2)C[C@@H](O)[C@H](C)/C=C(\C)[C@@H](O)[C@@H](OC)C(=NOCc2cn(CCOCCOCCOCCOCCOCCOCCOCCOCCC(=O)N3CCc4cc(Cn5nc(-c6ccc7oc(N)nc7c6)c6c(N)ncnc65)ccc4C3)nn2)[C@H](C)C[C@H](C)/C=C/C=C/C=C/1C

>  <experimental-value>
> 1000 nM

$$$$

Then there is this molecule:
Ask | // IC50 lookup, key: COC(=O)N[C@H]1C[C@@H]2CC[C@@H](C)[C@@](O)(O2)C(=O)C(=O)N2CCCC[C@H]2C(=O)O[C@H]([C@H](C)C[C@@H]2CC[C@@H](OCCCCc3cn(CCOCCOCCOCCOCCOCCOCCOCCOCCC(=O)N4CCN(c5ccc(-n6c(=O)n(C)c7cnc8ccc(-c9ccc(OC)nc9)cc8c76)cc5C(F)(F)F)CC4)nn3)[C@H](OC)C2)CC(=O)[C@H](C)/C=C(\C)[C@@H](O)[C@@H](OC)C(=O)[C@H](C)CC(C)/C=C/C=C/C=C/1C (stereo partly drawn)
Reply | < 3.16 nM
